tested on: OVCAR-3-derived ovarian cancer stem-like cells (spheroids); assay: cell growth relative to untreated control; higher = more growth (less inhibition); details: 2.29 µM; 96 h
recorded_metric: cell growth (%)
Entry rule: numbers only, all in %.

Before answering, review these 6 worked examples.
INSERT INTO assay_data (molecule, experimental_result) VALUES
  ('CC[C@@]1(O)C[C@H](O[C@H]2C[C@H](N(C)C)[C@H](O)[C@H](C)O2)c2c(cc3c(c2O)C(=O)c2c(O)ccc(O)c2C3=O)[C@H]1C(=O)OC', 50.3),
  ('[Cl][Cd][Cl]', 87.6),
  ('CC(=O)OC1C(O)C(C)OC(OC2C(OC(=O)C3CCC4C(C3)OC3(CC(OC(=O)/C=C/c5ccccc5)C(C)CO3)C43CO3)OC(C)C(O)C2OC(C)=O)C1O (configuration not stated)', 5.3),
  ('COC(=O)C1C(O)C(C)C(O)C(C)/C=C\C=C(C)C(=O)Nc2c(C)c(OC(C)=O)c3c(c2O)C(=O)C(C)=C2OCOC(=C23)C(C)=CC(C)(O)C(O)C(C)C1O (configuration not stated)', 84.9),
  ('CC(=O)[O][Hg][c]1c(C)c(C)c(C)c(C)c1C', 94.5),
  ('CC(=O)O[C@@H]1C[C@H]2O[C@@H]3C=C(C)CC[C@]3(C)[C@]1(C)[C@]21CO1', 48.5);

Could you now look at the following molecule, please?
Please indicate cell growth recorded for `CO[C@H]1[C@@H](O)[C@@H](C)O[C@H](O[C@H]2[C@H](Oc3cccc4c(O)c5c(=O)oc6ccc(C)c7c(=O)oc(c34)c5c67)O[C@H](C)[C@H](O)[C@@H]2O)[C@@H]1O`
67.4

---

tested on: OVCAR-3-derived ovarian cancer stem-like cells (spheroids); assay: cell growth relative to untreated control; higher = more growth (less inhibition); conditions: 2.29 µM; 96 h
Label condition not met if cell growth falls below 80%; label condition met in every other case.

INSERT INTO assay_data (compound, category_label) VALUES
  ('CCC[CH2][Sn]1([CH2]CCC)[S]CC[N]1S(=O)(=O)c1ccc(C)cc1', 'condition not met'),
  ('Cc1cc2c(C(C)C)c(O)c(O)c(C=O)c2c(O)c1-c1c(C)cc2c(C(C)C)c(O)c(O)c(C=O)c2c1O', 'condition met'),
  ('COc1cc2c(c3oc4cccc(O)c4c(=O)c13)[C@@H]1C=CO[C@@H]1O2', 'condition met'),
  ('COC1CC(O[C@H]2CC[C@]3(C=O)[C@H]4CC[C@]5(C)[C@@H](C6=CC(=O)OC6)CC[C@]5(O)[C@@H]4CC[C@]3(O)C2)OC(C)C1O (stereo partly drawn)', 'condition not met'),
  ('NP(=O)(Oc1c2occc2cc2ccc(=O)oc12)N(CCCl)CCCl (stereo not drawn)', 'condition not met'),
  ('COc1ccc(C2C=C(c3ccc4c(c3)OCO4)Oc3c2c(=O)oc2ccccc32)cc1OC (stereo not drawn)', 'condition not met');

Is cell growth for `CC(C)OP(=O)(OC(C)C)C(N(C)C)P(=O)(OC(C)C)OC(C)C.[Cl][Sn]([Cl])([Cl])[c]1ccccc1` at or above 80%?
condition not met

---

test system: OVCAR-3-derived ovarian cancer stem-like cells (spheroids); experiment: cell growth relative to untreated control; higher = more growth (less inhibition); conditions: 2.29 µM; 96 h
recorded_metric: cell growth (%)
Entry rule: numbers only, all in %.

Before answering, review these 3 worked examples.
INSERT INTO measurements (compound, experimental_result) VALUES
  ('CC(C)(Br)C(=O)C(Br)Br', 88.9),
  ('C=C1C(C)C2C(Cc3ccccc3)NC(=O)C23C(OC(C)=O)/C=C/C(C)(O)CC(C)C/C=C/C3C1O (centres undefined)', 90.3),
  ('CO[C@@H](/C(C)=C/C=C/C(C)=C/c1coc(C)n1)[C@@H](C)[C@@H]1C[C@H](O)[C@@]2(C)O[C@@H]2/C=C/[C@@H](C)[C@H]2C[C@H](CC(=O)O2)C[C@@H]2O[C@H]2C(=O)O1', 40.6);

Please indicate cell growth recorded for C=C(C)C(=O)OC1CCC2(C)C(CCC3C2CCC2(C)C(c4ccc(=O)oc4)CC4OC432)C1 (centres undefined)
92.2
